- testSystem: NPM-ALK-BaF3 (Homo sapiens)
- Construct: NPM (nuclear phosphoprotein / nucleophosmin, NPM1, P06748) fusion partner; expressed in transfected cells; host or cells: BaF3; the other entry of the earlier key: NPM1 (P06748, Nucleophosmin)
- Sequence (Q9UM73 with tags, fused parts or gaps): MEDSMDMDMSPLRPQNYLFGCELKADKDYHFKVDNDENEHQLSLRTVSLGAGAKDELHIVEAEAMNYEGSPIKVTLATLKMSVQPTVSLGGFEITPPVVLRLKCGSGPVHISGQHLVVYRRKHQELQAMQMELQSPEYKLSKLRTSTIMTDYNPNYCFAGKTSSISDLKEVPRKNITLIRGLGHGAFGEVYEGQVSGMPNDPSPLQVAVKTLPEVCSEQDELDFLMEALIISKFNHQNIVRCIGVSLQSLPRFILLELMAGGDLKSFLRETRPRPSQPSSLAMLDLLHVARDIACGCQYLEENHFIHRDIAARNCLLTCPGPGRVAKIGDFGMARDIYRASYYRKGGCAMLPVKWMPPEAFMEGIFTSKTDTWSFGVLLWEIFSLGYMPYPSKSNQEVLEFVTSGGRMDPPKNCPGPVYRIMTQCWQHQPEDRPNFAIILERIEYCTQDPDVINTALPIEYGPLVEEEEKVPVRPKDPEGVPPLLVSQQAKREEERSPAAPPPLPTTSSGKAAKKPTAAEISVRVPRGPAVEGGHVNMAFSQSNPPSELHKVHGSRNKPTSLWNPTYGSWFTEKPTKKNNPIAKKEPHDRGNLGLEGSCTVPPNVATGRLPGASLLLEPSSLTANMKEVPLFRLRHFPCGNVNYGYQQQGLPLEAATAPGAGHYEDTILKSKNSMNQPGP
- method: Growth inhibition of BaF3 cells stably transfected with kinase NPM-ALK (MTS)
- Assay type: cell-based
- testConditions: compound concentration 3.3 μM, read-out: cell growth inhibition rate, NPM-ALK
- Description: The specific test method is given as follows: 2) Reagent: MTS reaction solution (containing 2 mg/mL of MTS [3-(4,5-dimethylthiazol-2-yl)-5-(3-carboxymethoxyphenyl)-2-(4-sulfophenyl)-2H-tetra zolium, inner Salt]; 100 µg/mL PES ([…])).
valueKind: inhibition at 3.3 µM (%)
Write the answer as a number in %, unit excluded.

Q: State, in one line, measured inhibition at 3.3 µM of COC(=O)c1cccc(Nc2nc(Nc3cc(C)c(C4CCN(C)CC4)cc3OC)nc3ccsc23)c1 [ID-6]
Result: -24.1

Q: State, in one line, measured inhibition at 3.3 µM of COc1cc(N2CCC(N3CCN(C)CC3)CC2)ccc1Nc1nc(Nc2ccccc2[S+]([O-])C(C)C)c2sccc2n1 (centres unmarked) [IJ-2]
Result: 87.7

Q: State, in one line, measured inhibition at 3.3 µM of CS(=O)(=O)Nc1ccccc1Nc1nc(Nc2ccc(N3CCC(O)CC3)cc2)nc2ccsc12 [IH-4]
Result: 26.7

Q: State, in one line, measured inhibition at 3.3 µM of CNC(=O)c1ccccc1Nc1nc(Nc2ccc(N3CCC(N4CCN(C)CC4)CC3)cc2OC)nc2ccsc12 [II-1]
Result: 46.3

Q: State, in one line, measured inhibition at 3.3 µM of CS(=O)(=O)Nc1cccc(Nc2nc(Nc3ccc(S(N)(=O)=O)cc3)nc3ccsc23)c1 [IG-6]
Result: 3.07

Q: State, in one line, measured inhibition at 3.3 µM of COc1cc(C2CCN(C)CC2)c(C)cc1Nc1nc(Nc2ccccc2P(C)(C)=O)c2sccc2n1 [IK-5]
Result: 85.5

Q: State, in one line, measured inhibition at 3.3 µM of COc1cc2c(cc1Nc1nc(Nc3cn(C)nc3S(=O)(=O)C(C)C)c3sccc3n1)N(C(=O)CN(C)C)CC2 [IC-1]
Result: 82.4

Q: State, in one line, measured inhibition at 3.3 µM of COC(=O)c1ccccc1Sc1nc(Nc2ccc(N3CCC(N4CCCC4)CC3)cc2OC)nc2ccsc12 [IN-6]
Result: 46.7

* * *

Please provide measured inhibition at 3.3 µM for the entries that follow.
- testSystem: EML4-ALK-BaF3 (Homo sapiens, UniProt Q9UM73)
- Construct: EML4 (echinoderm microtubule associated protein like 4, Q9HC35) fusion partner; expressed in transfected cells; host or cells: BaF3; the other entry of the earlier key: EML4 (Q9HC35, Echinoderm microtubule-associated protein-like 4)
- Sequence (Q9UM73 1058-1620 limits assumed): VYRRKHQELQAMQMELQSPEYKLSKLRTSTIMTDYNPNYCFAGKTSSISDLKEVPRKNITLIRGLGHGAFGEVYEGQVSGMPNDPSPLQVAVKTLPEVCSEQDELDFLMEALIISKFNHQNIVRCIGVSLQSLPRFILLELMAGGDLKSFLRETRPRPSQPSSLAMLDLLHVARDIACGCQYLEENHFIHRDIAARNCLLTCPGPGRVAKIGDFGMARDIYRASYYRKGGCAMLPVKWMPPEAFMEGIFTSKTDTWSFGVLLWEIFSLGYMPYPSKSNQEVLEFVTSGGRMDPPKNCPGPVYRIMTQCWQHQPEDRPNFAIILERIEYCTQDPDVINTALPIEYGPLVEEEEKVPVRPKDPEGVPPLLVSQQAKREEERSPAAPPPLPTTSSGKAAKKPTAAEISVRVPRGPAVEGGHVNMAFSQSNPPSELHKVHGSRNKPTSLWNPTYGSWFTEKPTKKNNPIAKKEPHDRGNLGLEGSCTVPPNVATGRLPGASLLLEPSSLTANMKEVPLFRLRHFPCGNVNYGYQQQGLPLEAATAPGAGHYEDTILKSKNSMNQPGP
- method: Growth inhibition of BaF3 cells stably transfected with kinase EML4-ALK (MTS)
- Type: cell-based
- testConditions: compound concentration 3.3 μM, read-out: cell growth inhibition rate, EML4-ALK
Write the answer as a number in %, unit excluded.

Q: State, in one line, measured inhibition at 3.3 µM of COc1cc2c(cc1Nc1nc(Nc3ccccc3C(=O)N(C)C)c3sccc3n1)N(C(=O)CN(C)C)CC2 [IQ-1]
Result: 96.9

Q: State, in one line, measured inhibition at 3.3 µM of COc1cc(C2CCN(C)CC2)c(C)cc1Nc1nc(Nc2cccc(NS(C)(=O)=O)c2)c2sccc2n1 [IG-4]
Result: 97.8

Q: State, in one line, measured inhibition at 3.3 µM of COc1cc(N2CCN(C)CC2)ccc1Nc1nc(Nc2ccccc2S(C)(=O)=O)c2sccc2n1 [IA-4]
Result: 99.6

Q: State, in one line, measured inhibition at 3.3 µM of COC(=O)c1cccc(Nc2nc(Nc3cc(C)c(C4CCN(C)CC4)cc3OC)nc3ccsc23)c1 [ID-6]
Result: 99.9

Q: State, in one line, measured inhibition at 3.3 µM of COc1ccc(NC(=O)CN(C)C)cc1Nc1nc(Nc2ccccc2S(=O)(=O)C(C)C)c2sccc2n1 [IB-32]
Result: 95

Q: State, in one line, measured inhibition at 3.3 µM of COC(=O)c1ccccc1Nc1nc(Nc2ccc(N3CCN(C)CC3)cc2OC)nc2ccsc12 [IE-3]
Result: 96.7

Q: State, in one line, measured inhibition at 3.3 µM of CNC(=O)c1cccc(F)c1Nc1nc(Nc2ccc(N3CCC(N4CCN(C)CC4)CC3)cc2OC)nc2ccsc12 [IF-2]
Result: 3.41

Q: State, in one line, measured inhibition at 3.3 µM of COc1cc(N2CCC(N(C)C)CC2)ccc1Nc1nc(Nc2ccccc2S(=O)(=O)C(C)C)c2sccc2n1 [IB-31]
Result: 98.1
